B1: Chromodomain-helicase-DNA-binding protein 3, residues 374 to 426; numbered along this chain, Q12873 (parent)
chain: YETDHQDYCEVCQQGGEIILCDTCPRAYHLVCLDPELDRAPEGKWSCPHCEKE

variants of: B1; assay: abundance fitness (aPCA) (normalised: wild type 0, dead -1); higher = more abundant; growth selection in yeast, the domain comes from the species named; details: Homo sapiens
Grouping by measured abundance fitness is done with the following cut points: low interval (below -0.3), middle interval (-0.3 to below -0.01), high interval (-0.01 or more)

Q: Category of `V31Q` , please.
Ans: middle interval

Q: Category of `Y8P` , please.
Ans: high interval

Q: Category of `Y1E` , please.
Ans: high interval

Q: Category of `P25T` , please.
Ans: high interval

Q: Category of `R26Y` , please.
Ans: middle interval

Q: Category of `E2Y` , please.
Ans: high interval

Q: Category of `T3W` , please.
Ans: high interval

Q: Category of `Y1V` , please.
Ans: high interval

Q: Category of `L33E` , please.
Ans: low interval

Q: Category of `P35N` , please.
Ans: middle interval

Q: Category of `D38A` , please.
Ans: middle interval

Q: Category of `T23A` , please.
Ans: low interval

Q: Category of `T23M` , please.
Ans: high interval

Q: Category of `Y8W` , please.
Ans: middle interval

Q: Category of `L33P` , please.
Ans: low interval

Q: Category of `P25R` , please.
Ans: middle interval

Q: Category of `C32S` , please.
Ans: low interval

Q: Category of `R39H` , please.
Ans: middle interval

Q: Category of `H29R` , please.
Ans: low interval

Q: Category of `R26I` , please.
Ans: low interval

Q: Category of `D22H` , please.
Ans: low interval

Q: Category of `D7E` , please.
Ans: middle interval
